Target System: T1, human PD-1-hFc (human, UniProt Q15116 25-170)
T1 construct: extracellular domain; Extracellular domain of human PD-1 fused to an hFc tag, made in house; not shown: hFc tag
T1 sequence (Q15116 25-170): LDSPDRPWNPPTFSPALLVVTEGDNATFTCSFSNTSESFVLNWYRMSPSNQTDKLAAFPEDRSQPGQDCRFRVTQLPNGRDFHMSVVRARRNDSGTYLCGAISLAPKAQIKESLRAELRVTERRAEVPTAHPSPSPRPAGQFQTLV
Protocol Notes: competitive ELISA, coated PD-1-hFc, competitor PDL1-mFc
pIC50: −log10 of the molar value.
Reported Property: pIC50

{"Binder": "humanized antibody 29C6-HZ1 (antibody, human IgG4 S228P, kappa, V domains shown) VH: QVQLVQSGAEVKKPGASVKVSCKTSGYTFTEYTIYWVRQAPGQGLEWIGGINPKNGATLYNQKFQGRVTLTVDKSTSTAYMELRSLRSDDTAVYYCVRDYHGNSHDSMDYWGQGTLVTVSS VL: EIVLTQSPATLSLSPGERATLSCSASSSVSYMHWFQQKPGQAPRLWIYYTSNLASGVPARFSGSGSGTDYTLTISSLEPEDFAVYYCQQRSDYPPTFGGGTKVEIKR", "Reading": 8.51}
